- Tested on: MiaPaCa-2
- EXPERIMENTAL PROTOCOL: Soft agar colony formation
- Assay type: cell-based, human
- Set-up: unit not given here
- CONDITION CONTEXT: 10 μM; Table 2 experiment, DMSO control 182 ± 7 colonies

COMPOUND: COc1cccc(CNc2nc(CN(C)Cc3cccc(C)c3)nc3sc(C)c(C)c23)c1 [Compound I-29]
TESTED SYSTEM: MiaPaCa-2
Colonies in agar: 0 ± 0
--
COMPOUND: COc1cccc(CNc2nc(CN(C)Cc3cccc(OC)c3)nc3scc(C)c23)c1 [Compound I-30]
TESTED SYSTEM: MiaPaCa-2
Colonies in agar: 14 ± 2
--
COMPOUND: COc1cccc(CNc2nc(CN(C)Cc3cccc(OC)c3)nc3sc(C)c(C)c23)c1 [Compound I-1]
TESTED SYSTEM: MiaPaCa-2
Colonies in agar: 0 ± 0
--
COMPOUND: COc1cccc(CN(C)Cc2nc(NCc3cccc(F)c3)c3c(C)c(C)sc3n2)c1 [Compound I-28]
TESTED SYSTEM: MiaPaCa-2
Colonies in agar: 54 ± 5
--
COMPOUND: COc1cccc(CNc2nc(CN(C)Cc3cccc(OC)c3)nc3sccc23)c1 [Compound I-32]
TESTED SYSTEM: MiaPaCa-2
Colonies in agar: 36 ± 1
--
COMPOUND: COc1cccc(CNc2nc(CN(C)Cc3cccc(OC)c3)nc3c2c(C)c(C)[s+]3[O-])c1 (stereo not drawn) [Compound I-33]
TESTED SYSTEM: MiaPaCa-2
Colonies in agar: 186 ± 4
--
COMPOUND: CCc1cc2c(NCc3cccc(OC)c3)nc(CN(C)Cc3cccc(OC)c3)nc2s1 [Compound I-31]
TESTED SYSTEM: MiaPaCa-2
Colonies in agar: 14 ± 1
--
COMPOUND: COc1cccc(CN(C)Cc2nc(NCc3cccc(Cl)c3)c3c(C)c(C)sc3n2)c1 [Compound I-27]
TESTED SYSTEM: MiaPaCa-2
Colonies in agar: 51 ± 9
--
COMPOUND: COc1cccc(CN(C)Cc2nc(NC(C)c3ccccc3)c3c(C)c(C)sc3n2)c1 (stereo not drawn) [Compound I-26]
TESTED SYSTEM: MiaPaCa-2
Colonies in agar: 0 ± 0

###

- Test system: MiaPaCa-2
- EXPERIMENTAL PROTOCOL: Soft agar colony formation
- Type: cell-based, human
- CONDITION CONTEXT: Homo sapiens, MIA PaCa-2, read-out: IC50 (concentration that inhibits 50% of colony formation)

MOLECULE: COc1cccc(CNc2nc(CN(C)Cc3cccc(OC)c3)nc3sc(C)c(C)c23)c1 [Compound I-1]
IC50: < 1 µM
